Form field: pEC50 (one value per entry).
# Test system: THP-1 cells
# experimental details: Measurement of IL-1β production, hTRF protocol (second alternative procedure), THP-1 cells
# Type: cell-based, human
# experimental setup: Homo sapiens, THP-1, IL-1β production, human; read-out: NLRP3 hILIB EC50
Note on pEC50: it is the negative log10 of concentration, concentration in mol/L.

Some compounds with known pEC50 results, for comparison:
COc1ccc(C(=O)NCCn2cc3c(n2)c(N)nc2cc(-c4cc[nH]n4)ccc23)nc1; 6.33
CC(=O)N(C)CCn1cc2c(n1)c(N)nc1cc(-c3cc[nH]n3)ccc12; 5.04
Nc1nc2cc(-c3cc[nH]n3)ccc2c2cn(CCCOc3ccccn3)nc12; 6.25
CC(C)NCCn1cc2c(n1)c(N)nc1cc(-c3cc[nH]n3)ccc12; 5.75
Cc1ccccc1CNCCn1cc2c(n1)c(N)nc1cc(-c3cc[nH]n3)ccc12; 6.01
Nc1nc2cc(-c3cc[nH]n3)ccc2c2nn(C3CCC(O)C3)cc12 (stereo not drawn) [Example 339]; 6.68

// pEC50 lookup, key: "COCCn1cc2c(N)nc3cc(-n4cccn4)ccc3c2n1" 6.36

// pEC50 lookup, key: "Nc1nc2cc(-c3cc[nH]n3)ccc2c2cn(CCNC(=O)c3nccs3)nc12" 6.64

// pEC50 lookup, key: "Nc1nc2cc(-c3cc[nH]n3)ccc2c2cn(CCNCc3ccccc3)nc12" 6.04

###

# System: THP-1 cells
# experimental details: Measurement of IL-1β production, hTRF protocol (second alternative procedure), THP-1 cells
# Type: cell-based, human
# experimental setup: Homo sapiens, THP-1, IL-1β production, human; read-out: NLRP3 hILIB EC50
Form field: pEC50 (one value per entry).
Note on pEC50: it is the negative log10 of concentration, concentration in mol/L.

Cc1cc(Cn2cc3c(N)nc4cc(-c5cc[nH]n5)ccc4c3n2)no1; 6.36

// pEC50 lookup, key: "CCn1cc2c(n1)c(N)nc1cc(-c3ccn[nH]3)ccc12" 6.68

// pEC50 lookup, key: "Nc1nc2cc(-c3cc[nH]n3)ccc2c2nn(CCNC(=O)c3ccc(F)cn3)cc12" 6.74

// pEC50 lookup, key: "COC(C)(C)Cn1cc2c(N)nc3cc(-c4cc[nH]n4)ccc3c2n1" 6.08

###

# Tested on: THP-1 cells
# experimental details: Measurement of IL-1β production, hTRF protocol (second alternative procedure), THP-1 cells
# Type: cell-based, human
# experimental setup: Homo sapiens, THP-1, IL-1β production, human; read-out: NLRP3 hILIB EC50
experimental readout: EC50 (nM)
Respond numerically; units are nM and should not be typed.

Some molecules with known EC50 results, for comparison:
Nc1nc2cc(-n3cccn3)ccc2c2nn(CC(F)F)cc12 [Example 390]; 350
CCN1CCCC1Cn1cc2c(N)nc3cc(-c4ccn[nH]4)ccc3c2n1 (centres unmarked) [Example 274]; 600
C[C@H](CO)Cn1cc2c(N)nc3cc(-c4cc[nH]n4)ccc3c2n1 [Example 308]; 410

// EC50 lookup, key: Nc1nc2cc(-c3cc[nH]n3)ccc2c2cc(CCCO)oc12 [Example 148] 2030

// EC50 lookup, key: Nc1nc2cc(-c3cc[nH]n3)ccc2c2cn(CCNC(=O)c3ncccc3F)nc12 [Example 53] 450

// EC50 lookup, key: CC(=O)NCCn1cc2c(n1)c(N)nc1cc(-c3cc[nH]n3)ccc12 [Example 33] 11800

// EC50 lookup, key: Nc1nc2cc(-c3ccn[nH]3)ccc2c2oc(CCCOCc3ccccc3)nc12 [Example 146] 7940

// EC50 lookup, key: CC(Cn1cc2c(N)nc3cc(-c4ccn[nH]4)ccc3c2n1)NS(C)(=O)=O (centres unmarked) [Example 301] 1400

// EC50 lookup, key: CN(C)Cc1nc2c(N)nc3cc(-c4ccn[nH]4)ccc3c2o1 [Example 145] 2740

// EC50 lookup, key: Cc1nc(Cn2cc3c(N)nc4cc(-c5cc[nH]n5)ccc4c3n2)no1 [Example 355] 2570

// EC50 lookup, key: CC(N)Cn1cc2c(N)nc3cc(-c4ccn[nH]4)ccc3c2n1 (centres unmarked) [Example 257] 860

// EC50 lookup, key: CCCCn1cc2c(N)nc3cc(-c4cc[nH]n4)ccc3c2n1 [Example 305] 290

// EC50 lookup, key: CS(=O)(=O)NCCn1cc2c(n1)c(N)nc1cc(-c3cc[nH]n3)ccc12 [Example 113] 3830

// EC50 lookup, key: Nc1nc2cc(-c3cc[nH]n3)ccc2c2cn(CCNC(=O)c3cnco3)nc12 [Example 84] 1790

// EC50 lookup, key: Nc1nc2cc(-c3cc[nH]n3)ccc2c2nn(CCOC(F)(F)F)cc12 [Example 352] 80

// EC50 lookup, key: CC(=O)N1CCCC1Cn1cc2c(N)nc3cc(-c4ccn[nH]4)ccc3c2n1 (centres unmarked) [Example 258] 1780

// EC50 lookup, key: CS(=O)(=O)NCCn1cc2c(N)nc3cc(-c4cc[nH]n4)ccc3c2n1 [Example 206] 260
